B1: TRIM43 (parent)
chain: FCDMDKSLLCLLCSNSQEHGAHKH

variants of: B1; test: protein stability index of a GFP-peptide fusion (GPS, HEK-293T) (PSI 1-6); higher = more stable; conditions: c terminus: a fixed tail appended;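 further: lentivirally expressed fusions sorted by FACS into six bins by GFP to DsRed ratio, PSI derived from sequencing read proportions per bin multiplied by bin number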
// label = met if protein stability index is not less than 2, otherwise not met

Example cases with answers are listed next.
- sequence_entry: "FCDMDKSLLCLLCSNSQYHGAHKH [E18Y]"
  group_label: "not met"
- sequence_entry: "FCDMDKSLLCLLCSNSQETGAHKH [H19T]"
  group_label: "not met"
- sequence_entry: "FCDMDKSLLCLLCSNSQEHGAHKM [H24M]"
  group_label: "not met"
- sequence_entry: "FCDMDKSLLCLLCSNSQEHGAVKH [H22V]"
  group_label: "not met"
- sequence_entry: "FCDMAKSLLCLLCSNSQEHGAHKH [D5A]"
  group_label: "met"

protein stability index >= 2 for FCDMDKSLLCLWCSNSQEHGAHKH [L12W] ?
met

// query: FCDMDKSLLCLLCSCSQEHGAHKH [N15C]
not met

// query: FCEMDKSLLCLLCSNSQEHGAHKH [D3E]
met

What do you have for FCDMEKSLLCLLCSNSQEHGAHKH [D5E] ?
not met

Then this variant: FCDMDKALLCLLCSNSQEHGAHKH [S7A]
not met

Also FCDMDKSLLCLLCSNSQEHGAHKD [H24D] , if possible.
met
